The values you see were collected from paper PMC9482650.

- measured.target: T1, MPP7, Q5T2T1
- T1 sequence (Q5T2T1 134-230, limits assumed, looked up): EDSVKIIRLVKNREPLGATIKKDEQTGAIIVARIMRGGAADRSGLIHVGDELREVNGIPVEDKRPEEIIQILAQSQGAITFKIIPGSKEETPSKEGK
- assay.notes: holdup assay
- Set-up: key: below the threshold = too weak to quantify, mostly under pKd 3.1 to 4
- test.settings: plain residues with an end cap or a label only (N-terminal biotin on a linker: ado-ado)
measured.quantity: pKd

1. QKASRNESTF [POLR1D, P0DPB6]
below the threshold
2. KSRPENGTVC [TMEM178B, H3BS89]
below the threshold
3. PGKKPEDSRV [SLCO2B1, O94956]
below the threshold
4. IGHEDLETAV [DGKI, O75912]
below the threshold

Please give the measured pKd for this binder: SRPHTNETSL [MCC, P23508]
below the threshold
